- tgt: T1, Ala mutant having 3-amino acid substitution, SEQ ID NO: 49
- T1 peptide: EENMDDQWMQDEMEIAA
- protocolNotes: ELISA, coated peptide
observationType: OD 490/630 nm
Response field accepts a number only; no unit should be typed.

// known answers, use as guide
G9 (antibody, V domains shown, Chicken variable regions in a mouse chimeric antibody (IgG1); also called anti-PAD4 antibody G9) VH: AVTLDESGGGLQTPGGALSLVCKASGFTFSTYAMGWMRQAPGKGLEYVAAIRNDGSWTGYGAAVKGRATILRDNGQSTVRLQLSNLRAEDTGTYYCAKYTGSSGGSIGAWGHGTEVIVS VL: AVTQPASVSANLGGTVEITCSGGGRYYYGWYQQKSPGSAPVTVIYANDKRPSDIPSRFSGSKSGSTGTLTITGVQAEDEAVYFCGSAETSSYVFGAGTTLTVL = 1.92
G6 (antibody, V domains shown, Chicken variable regions in a mouse chimeric antibody (IgG1); also called anti-PAD4 antibody G6) VH: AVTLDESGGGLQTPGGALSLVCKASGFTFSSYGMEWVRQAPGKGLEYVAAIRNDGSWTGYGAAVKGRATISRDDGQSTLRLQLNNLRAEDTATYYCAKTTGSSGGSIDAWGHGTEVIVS VL: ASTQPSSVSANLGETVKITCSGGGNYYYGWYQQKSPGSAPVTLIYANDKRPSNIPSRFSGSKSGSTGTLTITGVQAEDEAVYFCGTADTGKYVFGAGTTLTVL = 1.88

Next up:
Query: Sample E9 (antibody, V domains shown, Chicken variable regions in a mouse chimeric antibody (IgG1); also called anti-PAD4 antibody E9) VH: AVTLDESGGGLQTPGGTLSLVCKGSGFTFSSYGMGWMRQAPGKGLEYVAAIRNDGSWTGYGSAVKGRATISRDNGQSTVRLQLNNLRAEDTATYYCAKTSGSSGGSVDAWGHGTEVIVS VL: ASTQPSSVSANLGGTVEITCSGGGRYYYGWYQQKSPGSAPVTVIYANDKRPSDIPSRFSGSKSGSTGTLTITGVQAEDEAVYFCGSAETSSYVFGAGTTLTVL — what was its OD 490/630 nm?
Reply: 1.85

Data origin, for the record: patent US20180044434A1
